Molecular target: human TLR7 (Homo sapiens)
Sequence (Q9NYK1 27-1049): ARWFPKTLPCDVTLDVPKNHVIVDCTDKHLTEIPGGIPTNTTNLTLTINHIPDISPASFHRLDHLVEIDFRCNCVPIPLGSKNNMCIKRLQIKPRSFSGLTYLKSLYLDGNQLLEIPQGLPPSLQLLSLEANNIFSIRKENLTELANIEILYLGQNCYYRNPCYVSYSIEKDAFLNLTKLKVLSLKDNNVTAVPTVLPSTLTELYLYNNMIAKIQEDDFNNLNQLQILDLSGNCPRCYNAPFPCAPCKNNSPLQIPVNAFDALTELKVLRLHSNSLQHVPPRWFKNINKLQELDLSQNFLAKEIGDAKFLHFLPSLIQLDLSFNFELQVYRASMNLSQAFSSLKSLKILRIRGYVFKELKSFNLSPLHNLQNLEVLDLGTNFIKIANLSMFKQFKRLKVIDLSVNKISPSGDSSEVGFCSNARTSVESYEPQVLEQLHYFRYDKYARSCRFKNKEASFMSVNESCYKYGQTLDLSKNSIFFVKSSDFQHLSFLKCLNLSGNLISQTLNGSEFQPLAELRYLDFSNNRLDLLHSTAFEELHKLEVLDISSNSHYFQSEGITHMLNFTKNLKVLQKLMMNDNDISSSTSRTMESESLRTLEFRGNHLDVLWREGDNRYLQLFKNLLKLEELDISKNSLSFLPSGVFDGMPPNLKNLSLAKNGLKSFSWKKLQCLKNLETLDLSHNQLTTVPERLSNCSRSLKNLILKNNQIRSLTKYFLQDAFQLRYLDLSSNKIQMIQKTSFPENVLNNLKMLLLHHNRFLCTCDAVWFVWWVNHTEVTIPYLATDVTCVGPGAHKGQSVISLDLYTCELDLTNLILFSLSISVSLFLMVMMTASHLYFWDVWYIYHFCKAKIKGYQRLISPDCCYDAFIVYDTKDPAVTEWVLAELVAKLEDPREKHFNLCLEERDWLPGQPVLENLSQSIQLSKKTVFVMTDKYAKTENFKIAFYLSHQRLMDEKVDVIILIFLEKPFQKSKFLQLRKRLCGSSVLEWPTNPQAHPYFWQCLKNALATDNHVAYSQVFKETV
Test: TLR7 inhibition reporter assay (HEK-Blue, SEAP)
Conditions: HEK-Blue cells overexpressing human TLR7, gardiquimod 7.5 μM, 22 hour incubation
Listing of entries alongside the reported log10(IC50).
Hello, just confirming the data are log10 of IC50 with units of nM.

Cc1cc(-c2[nH]c3ccc(C4CCN(CC(=O)N(C)C)CC4)cc3c2C(C)C)cn2c(C)nnc12	0.96
CNC(=O)CN1CCC(c2ccc3[nH]c(-c4ccc5nncn5c4)c(C(C)C)c3c2)CC1	0.83
Cc1c(-c2[nH]c3ccc(C4CCN(CCS(C)(=O)=O)CC4)cc3c2C(C)C)cn2cnnc2c1C	0.26

Data request: For the compound shown here, Cc1c(-c2[nH]c3ccc(C4CC(C)N(CC5(C)COC5)C(C)C4)cc3c2C(C)C)cn2cnnc2c1C (single isomer, unassigned) [Example 113] , give the reported log10(IC50).
Data returned: 0.38

Data request: For `CC(C)c1c(-c2ccc3nncn3c2)[nH]c2ccc(C3CCN(C(=O)CN(C)C)CC3)cc12` then?
Data returned: 0.77

Data request: Next up: Cc1c(-c2[nH]c3ccc(C4C[C@H]5CC[C@@H](C4)N5CC(=O)N(C)C)cc3c2C(C)C)cn2cnnc2c1C (single isomer, unassigned) [Example 119]
Data returned: 1.11

Data request: Would you mind doing `COc1cc(-c2[nH]c3ccc(C4CCN(CC5(C)COC5)CC4)cc3c2C(C)C)cn2cnnc12` as well?
Data returned: 1.24

Data request: And the next one, `Cc1c(-c2[nH]c3ccc(C4CCNCC4)cc3c2C(C)C)cn2cnnc2c1C` ?
Data returned: 0.72

Data request: Same thing, different compound: `Cc1nnc2ccc(-c3[nH]c4ccc(C5CCNCC5)cc4c3C(C)C)cn12`
Data returned: 1.43

This collection of values is drawn from patent US11130756B2.
